- System: NCI/ADR-RES
- Experiment Summary: NCI tumour cell line growth inhibition, 48 h
Calls of active or inactive are those of the source. Cut-off read from the data, not from the text of the source: active = GI50 up to about 1.1 µM and inactive = higher.
Form entry, call: pick from YES for active, NO for inactive

Cc1ccc2c(c1)C(=O)C(Cc1ccccc1C(=O)O)C2 (configuration not stated) = NO
Nc1ccc(S(=O)(=O)c2ccc(NCN3C(=O)NC(=O)C(=O)C3=O)cc2)cc1 = NO
COc1ccc2[nH]c3c(c2c1)CC(=O)N1CCCC(CC3O)C1 (configuration not stated) = NO

-- ask Assay outcome for CN(N=O)c1nc2c(C(N)=O)ncn2s1 : what was it?
-- reply NO

-- ask Assay outcome for Cn1c2ccccc2n2c3ncccc3c(=S)c(C#N)c12 : what was it?
-- reply NO

-- ask Assay outcome for CN(CCc1ccc(N)cc1)[C@H]1CCCC[C@H]1N1CCCC1 : what was it?
-- reply NO

-- ask Assay outcome for O=C(O)c1cc(-c2ccncc2)nc2ccccc12 : what was it?
-- reply NO

-- ask Assay outcome for CCn1c(SCC(=O)NNC(=S)Nc2ccc([N+](=O)[O-])cc2)nc2ccccc2c1=O : what was it?
-- reply NO

-- ask Assay outcome for COC(=O)C1CCC(=O)N1CN(C(C)=O)c1cccc(O)c1 (configuration not stated) : what was it?
-- reply NO

-- ask Assay outcome for COC12CCCN1c1ccn(Cc3ccccc3)c(=O)c1C2=O (configuration not stated) : what was it?
-- reply NO

-- ask Assay outcome for O=C(Cc1ccc(Cl)c(Cl)c1)NCCCN1CCN(CCCN2CCCCC2)CC1 : what was it?
-- reply NO

-- ask Assay outcome for CCN1CCC(O)(c2ccc(O)cc2)C(C(=O)c2ccc(O)cc2)C1 (configuration not stated) : what was it?
-- reply NO

-- ask Assay outcome for COc1ccc(/C=C2\CN(C)C/C(=C\c3ccc(OC)c(OC)c3OC)C2=O)c(OC)c1OC : what was it?
-- reply YES

-- ask Assay outcome for OCC(S)CS.[Bi] (configuration not stated) : what was it?
-- reply NO

-- ask Assay outcome for O=S(=O)(c1ccc(/N=C2\NC(c3ccc(O)cc3)(c3ccccc3O)c3ccccc32)cc1)c1ccc(/N=C2/NC(c3ccc(O)cc3)(c3ccccc3O)c3ccccc32)cc1 (configuration not stated) : what was it?
-- reply NO

-- ask Assay outcome for C[C@]12CC[C@H]3[C@@H](CC=C4C[C@@H](N5CCCC5)CC[C@@]43C)[C@@H]1C/C(=C\c1ccc([N+](=O)[O-])cc1)[C@@H]2O : what was it?
-- reply NO

-- ask Assay outcome for Brc1c2c(c(Br)c3nsnc13)N=S=N2 : what was it?
-- reply NO

-- ask Assay outcome for CN1CCN(Cc2ccccc2)CC1CC#N (configuration not stated) : what was it?
-- reply NO

-- ask Assay outcome for C[C@@H]1C(=O)O[C@@H]2C[C@@]1(C)[C@@H]1C(=O)C3(O)OC14C2(C)OC(=O)[C@@]4(O)CCC1C3C(O)C=C2CC=CC(=O)[C@@]21C (some centres not stated) : what was it?
-- reply NO

-- ask Assay outcome for OC1c2ccccc2CCC1C(O)(C(F)(F)F)C(F)(F)F (configuration not stated) : what was it?
-- reply NO

-- ask Assay outcome for CC1(C)OC2C(COC(c3ccccc3)(c3ccccc3)c3ccccc3)OC(c3c[nH]c4c(N)ncnc34)C2O1 (configuration not stated) : what was it?
-- reply NO

-- ask Assay outcome for O=C1CCCC1C(O)(C(F)(F)Cl)C(F)(F)Cl (configuration not stated) : what was it?
-- reply NO

Origin of the recorded values: ChEMBL document CHEMBL1201862
